In this section, each of the variants is paired with its reported abundance fitness.
B1: Myocardin-related transcription factor A, residues 341 to 383; numbered along this chain, Q969V6 (parent)
chain: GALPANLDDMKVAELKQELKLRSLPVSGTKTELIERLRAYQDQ

- Variants of: B1
- testName: abundance fitness (aPCA) (normalised: wild type 0, dead -1); higher = more abundant; growth selection in yeast, the domain comes from the species named
- studyConditions: Homo sapiens
Answer field: number only, no words.

Worked examples, 2 variants total:
biopolymerSequence	abundance fitness
GALPANLDDMKVAELKQELKLRSLPVSGTKTELIERLHAYQDQ [R38H]	-0.201
GALPANLDDMKVAELKQELKLRSLPVSGTKTVLIERLRAYQDQ [E32V]	-0.093

We next turn to a different variant, shown below.
Task item: Suppose we examine the variant GALPANLDDMKVAELKQELKLRSLPVSGTKTELIERLRAYQAQ [D42A] ; what abundance fitness value has been reported?
Reply: 0.205
